These entries and their values trace back to ChEMBL document CHEMBL4819140.

Target: Glycogen synthase kinase-3 beta (Homo sapiens)
Experiment: Inhibition of human GSK-3beta incubated with substrate in presence of ATP measured by serial dilution assay

COMPOUND | IC50 [µM]
COc1cc(O)c2c(c1)[C@H]1O[C@@H]1C[C@H](O)[C@H](O)C(=O)/C=C\C[C@H](C)OC2=O [HYPOTHEMYCIN] | 11.3
OC1(c2ccccc2)CSC(=S)N1Cc1ccncc1 (configuration not stated) | 0.37

====

Target: Glycogen synthase kinase-3 beta (Homo sapiens, UniProt P49841, C199A)
Sequence (P49841 whole entry C199A): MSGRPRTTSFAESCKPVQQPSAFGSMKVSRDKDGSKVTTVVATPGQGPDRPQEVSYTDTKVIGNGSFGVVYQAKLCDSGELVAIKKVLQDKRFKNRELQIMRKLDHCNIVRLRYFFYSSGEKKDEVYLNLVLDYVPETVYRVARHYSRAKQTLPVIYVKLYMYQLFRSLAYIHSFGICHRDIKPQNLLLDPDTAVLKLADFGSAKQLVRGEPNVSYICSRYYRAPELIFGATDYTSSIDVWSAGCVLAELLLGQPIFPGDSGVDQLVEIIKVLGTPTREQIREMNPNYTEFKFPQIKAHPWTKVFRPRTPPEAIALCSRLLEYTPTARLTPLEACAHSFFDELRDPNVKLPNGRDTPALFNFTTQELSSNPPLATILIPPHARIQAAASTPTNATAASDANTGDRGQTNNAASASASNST
Assay: Inhibition of human GSK-3beta C199A mutant incubated with substrate in presence of ATP measured by serial dilution assay

COMPOUND | IC50 / µM
OC1(c2ccccc2)CSC(=S)N1Cc1ccncc1 (stereo unspecified) | 121

====

Target: Glycogen synthase kinase-3 beta (Homo sapiens, UniProt P49841)
Sequence (P49841 whole entry): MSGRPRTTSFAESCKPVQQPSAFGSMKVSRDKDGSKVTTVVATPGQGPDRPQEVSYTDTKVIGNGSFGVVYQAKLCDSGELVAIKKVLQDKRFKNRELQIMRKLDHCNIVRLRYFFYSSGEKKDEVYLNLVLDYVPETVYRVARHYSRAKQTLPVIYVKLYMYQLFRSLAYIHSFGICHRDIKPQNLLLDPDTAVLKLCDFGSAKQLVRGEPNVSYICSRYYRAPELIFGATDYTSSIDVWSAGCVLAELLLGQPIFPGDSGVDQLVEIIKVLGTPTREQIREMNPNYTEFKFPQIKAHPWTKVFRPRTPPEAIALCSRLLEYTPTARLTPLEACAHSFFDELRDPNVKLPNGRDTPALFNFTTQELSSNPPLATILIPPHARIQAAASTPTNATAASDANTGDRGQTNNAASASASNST
Assay: Inhibition of human GSK-3beta preincubated for 3 hrs followed by ATP and substrate addition measured by serial dilution assay
Listing: IC50 of selected molecules
METRIC NAME: IC50

MOLECULE | OBSERVED MEASUREMENT
COc1cc(O)c2c(c1)[C@H]1O[C@@H]1C[C@H](O)[C@H](O)C(=O)/C=C\C[C@H](C)OC2=O | 663 nM
OC1(c2ccccc2)CSC(=S)N1Cc1ccncc1 (configuration not stated) | 102 nM
